- Test system: MOLT-4 leukemia
- test_protocol: NCI tumour cell line growth inhibition, 48 h
# Lookup of reported TGI keyed by entry
property: TGI

compound	target_of_assay	recorded_measurement
Fc1ccc(Nc2nc(Cl)c3[nH]cnc3n2)cc1Cl	MOLT-4 leukemia	> 100 µM
CCCCCCCCCCCCCCCCOCC(COP(=O)(O)OCC1OC(n2cc(CC)c(=O)[nH]c2=O)CC1O)OC(=O)CCCCCCCCCCCCCCC (stereo unspecified)	MOLT-4 leukemia	> 100 µM
C/C(=N/NC(=O)c1ccncc1)C(F)(F)F	MOLT-4 leukemia	> 100 µM
COc1cc2nc(-c3cccs3)nc(Nc3cccc([N+](=O)[O-])c3)c2cc1OC	MOLT-4 leukemia	> 100 µM
COc1ccc2c(c1)[C@@H](NC(C)=O)CCc1cc(OC)c(OC)c(OC)c1-2	MOLT-4 leukemia	> 42.5 µM
N/N=c1/nc2n(c3ncccc13)C=CNN2	MOLT-4 leukemia	> 100 µM
N#CC(C#N)=c1c(=O)c2c3ccccc3cc3cccc1c32	MOLT-4 leukemia	> 100 µM
CCOC(=O)c1noc2c1CCc1c-2cn(Cc2ccc(OC)cc2)c1-c1cc(OC)c(OC)c(OC)c1	MOLT-4 leukemia	> 100 µM
Cc1ccc(-c2n[nH]c(=O)n2/N=C\c2ccccc2O)cc1	MOLT-4 leukemia	> 100 µM
O=C(O)c1ccc(N(/C=C/C(=O)C(F)(F)F)Cc2ccc(Cl)cc2)cc1	MOLT-4 leukemia	> 100 µM
COC(=O)c1c(O)c(C#N)c2[nH]c3ccccc3n2c1=O	MOLT-4 leukemia	> 100 µM
Nc1ccc(/C=C/c2ccc3ncccc3c2)cc1	MOLT-4 leukemia	> 100 µM
O=C1C(Cl)C(c2cccc([N+](=O)[O-])c2)N1n1cnc2ccccc2c1=O (stereo unspecified)	MOLT-4 leukemia	> 100 µM
ClC1=C(Cl)C(Cl)(C2(Cl)C(Cl)=C(Cl)C(Cl)=C2Cl)C(Cl)=C1Cl	MOLT-4 leukemia	2.31 µM
CC(C)(C)C(=O)/C=C(\OB(F)F)C(C)(C)C	MOLT-4 leukemia	> 100 µM
CC[C@@H]1/C=C/C=C/C[C@H](C)[C@@H](O)[C@@H](C)C(=O)[C@H](C)[C@@H](O)[C@H](C)C(=O)[C@H](C)[C@@H](O)[C@H](C)/C=C/C(=O)O[C@H]2[C@@H](C)[C@@H](CC1)O[C@@]1(CC[C@@H](C)[C@@H](CC(C)O)O1)[C@@H]2C (stereo partly specified)	MOLT-4 leukemia	7.65 µM
C/C=C1/CC(C(=O)OC)N(C(=O)OCc2ccccc2)C1=S (stereo unspecified)	MOLT-4 leukemia	> 100 µM
C=C(CO)C(=O)OC1CC(=C)C2CC(O)C(C)C2C2OC(=O)C(=C)C12 (stereo unspecified)	MOLT-4 leukemia	64.6 µM
CC1=C(O)C(=O)C=C2C1=CC=C1[C@@]2(C)CC[C@@]2(C)C3C[C@@H](C)C(=O)[C@@H](O)[C@]3(C)CC[C@]12C (stereo partly specified)	MOLT-4 leukemia	3.21 µM
O=C(c1ccc2ccccc2c1)C1(I)S(=O)(=O)OCCOS1(=O)=O	MOLT-4 leukemia	> 100 µM
O=C(O)c1cc(CCc2ccc(O)c(O)c2)ccc1O	MOLT-4 leukemia	> 100 µM
COc1ccc2c(-c3csc(-c4c[nH]c5ccc(Br)cc45)n3)c[nH]c2c1	MOLT-4 leukemia	> 100 µM
Cc1cn2cc(-c3cccs3)nc2s1	MOLT-4 leukemia	> 100 µM
CC(=O)OC(C)(C)C1CC[C@]2(C)/C=C/C(C)C[C@@H](O)/C=C(\C)CC(O)C12 (stereo partly specified)	MOLT-4 leukemia	> 100 µM
N#CC1=C(N)Oc2c(sc3c(Br)cccc23)C1c1ccc([N+](=O)[O-])cc1 (stereo unspecified)	MOLT-4 leukemia	6.07 µM
CC(=O)OCC1OC(N2C(=O)[C@@H](Oc3ccccc3)[C@H]2/C=C/c2ccccc2)C(OC(C)=O)C(OC(C)=O)C1OC(C)=O (stereo partly specified)	MOLT-4 leukemia	> 100 µM

====

# TGI values compiled below
- System: COLO 205 colon
- test_protocol: NCI tumour cell line growth inhibition, 48 h
property: TGI

molecule	recorded_measurement
C#CCOC(=O)C(N)CC(N)=O (stereo not drawn)	> 100 µM
COc1cc(/C=C2\CC3C4CC=C5CC(OC(C)=O)CC[C@]5(C)C4CC[C@]3(C)C2=O)ccc1OCCN1CCCC1 (stereo partly drawn)	> 63.8 µM
C[C@@H]1C(=O)CC2C(C)(C)CCC[C@]2(C)[C@@]12CC[C@]1(C=COC1)O2 (stereo partly drawn)	> 100 µM

====

- System: NCI-H460 lung
- test_protocol: NCI tumour cell line growth inhibition, 48 h; in the data active means GI50 below about 0.43 µM; inactive means the rest
Outcomes: active, inactive

molecule	class_label
COc1ccc(C2=NN(C(N)=S)C(c3ccc4c(c3)OCO4)C2)cc1 (stereo not given)	inactive
O=c1nc2n(-c3cccc(Cl)c3)c3ccc([N+](=O)[O-])cc3cc-2c(=O)[nH]1	inactive
C=CCC1(O)c2ccccc2C(=O)c2c(OCC(=O)OCC)ccc(OCC(=O)OCC)c21 (stereo not given)	inactive
N#CC1=C(N)Oc2c(sc3c(Br)cccc23)C1c1ccc([N+](=O)[O-])cc1 (stereo not given)	active
CC(C)=CCc1cc2c(cc1O)C1=C(C(=O)C3=C(NCCS3(=O)=O)C1=O)C(C=C(C)C)O2 (stereo not given)	inactive
O=C(O)c1ccc(N(/C=C/C(=O)C(F)(F)F)Cc2ccc(Cl)cc2)cc1	inactive
COc1cc(/C=C/C(=O)c2cccc(-n3cc(-c4ccccc4)[nH]c3=O)c2)cc(OC)c1OC	inactive
O=C(NCc1cn(Cc2cccc(Oc3ccccc3)c2)nn1)c1cccnc1Nc1ccc(F)cc1	inactive
Sc1cccc2cccnc12	active
CC1=C(CCCOC(=O)[C@H](N)CC(C)C)C2=C(C)C3(CC3)[C@@](C)(O)C(=O)C2=C1	active

====

- Tested on: SF-539 CNS
- test_protocol: NCI tumour cell line growth inhibition, 48 h
property: TGI

molecule	recorded_measurement
N/N=c1/nc2n(c3ncccc13)C=CNN2	> 100 µM
OCC(O)COCn1cc(Cn2ncc3c(SCc4ccccc4)ncnc32)nn1 (stereo not drawn)	> 100 µM
C#CCOC(=O)C(N)CC(N)=O (stereo not drawn)	> 100 µM

====

# reported log10(TGI); entries follow
- Test system: HL-60(TB) leukemia
- test_protocol: NCI tumour cell line growth inhibition, 48 h
property: log10(TGI) (log10 of the value in µM)

molecule	property	recorded_measurement
C[C@@H]1C(=O)CC2C(C)(C)CCC[C@]2(C)[C@@]12CC[C@]1(C=COC1)O2 (some centres not stated)	log10(TGI)	1.63
Brc1ccc(C2=NCSC(c3ccc(Br)cc3)=N2)cc1	log10(TGI)	1.54
COc1ccc(-c2nc3sc(-c4cc(OC)c(OC)c(OC)c4)nn3c2/C=C2/C(=O)Nc3ccc(F)cc32)cc1	log10(TGI)	1.85
CCC(C)N1CN(c2ccccc2)C2(CCN(CC3COc4ccccc4O3)CC2)C1=O (configuration not stated)	log10(TGI)	1.54
O=S(=O)(NCCCNc1cc(-c2cn(-c3ccccc3)nc2-c2cccc(O)c2)ccn1)c1ccc(C(F)(F)F)cc1	log10(TGI)	0.79
CNC(=O)Oc1cc(C(C)C)ccc1Sc1ccc(C(C)C)cc1OC(=O)NC	log10(TGI)	1.10
CC(=O)N1C/C(=C\c2ccccc2)C(=O)/C(=C/c2ccccc2)C1	log10(TGI)	0.61
N=c1sc2ccccc2n1CCS (tested in a mixture with another compound)	log10(TGI)	1.83
C/C(=C\C(=O)O[C@H]1[C@@H]2[C@H](C)CC[C@H]2[C@]2(C)O[C@@]1(C1CCCCC1)C[C@H]2OC(=O)CO)c1ccccc1	log10(TGI)	1.12
CC(=O)c1ccc(Br)cc1NC1=CC(=O)c2ncccc2C1=O	log10(TGI)	0.56
O=C(/C=C\c1ccc(O)c(O)c1)c1ccccc1O	log10(TGI)	0.78
COc1cc2cc(NCc3cccc(Cl)c3)nc(C)c2cc1OC	log10(TGI)	1.75
CC[C@@]1(OP(=O)(O)O)C(=O)OCc2c1cc1n(c2=O)Cc2cc3ccccc3nc2-1	log10(TGI)	-0.73

====

Entries and their measured TGI follow.
- Tested on: NCI/ADR-RES ovarian
- test_protocol: NCI tumour cell line growth inhibition, 48 h

compound	TGI
Cn1cc(C2=C(c3ccsc3)C(=O)NC2=O)c2ccccc21	> 25 µM
O=C1c2ccccc2-c2nnc3c(c21)Cc1ccccc1C3	> 10 µM
C#CCOC(=O)C(N)CC(N)=O (stereo not given)	> 100 µM
N#CC(C#N)=c1c(=O)c2c3ccccc3cc3cccc1c32	> 100 µM
CN(Cc1cnc2nc(N)nc(N)c2n1)c1ccc(C(=O)NCCCS(=O)(=O)O)cc1	> 100 µM

====

- System: NCI-H460 lung
- test_protocol: NCI tumour cell line growth inhibition, 48 h
Let's look at some compounds and their measured TGI.

compound	TGI
COc1ccc2c(c1)[C@@H](NC(C)=O)CCc1cc(OC)c(OC)c(OC)c1-2	> 15.8 µM
CC1=C(CCCOC(=O)[C@H](N)CC(C)C)C2=C(C)C3(CC3)[C@@](C)(O)C(=O)C2=C1	11.1 µM
CC(=O)CCC#Cc1ccccc1C(=O)C(C)=[N+]=[N-]	> 100 µM
COCCN(C(=O)c1ccccc1)C1CCC2(SCCS2)c2[nH]c3ccccc3c21 (stereo unspecified)	> 100 µM
COC(=O)c1cc2ccc(O)c(O)c2cn1	37.4 µM
Cc1nc2ccc(F)cc2c2c1CCS2	> 100 µM
O=C1C=CC2(C=C1)O[C@H](COCc1ccccc1)[C@@H](COCc1ccccc1)O2	37.2 µM
CC(C)=CCC/C(C)=C/CC/C(C)=C/CSC[C@H](NC(=O)CCCCCN1CCN(C)CC1)C(=O)NC1CCCCCC1	3.69 µM
COc1ccc(-c2csc3c2-n2cccc2C3=O)cc1	> 43 µM
COC(=NC(C)C)NC(C)C	> 100 µM
Cc1c(Cl)cccc1C(=O)Nc1nc2c(s1)CN(C(=O)Nc1cccc(C(F)(F)F)c1)CC2	> 17.4 µM
Cn1ncnc1[C@@H]1c2n[nH]c(=O)c3cc(F)cc(c23)N[C@H]1c1ccc(F)cc1	> 100 µM
CC(=O)OC(C)(C)C1CC[C@]2(C)/C=C/C(C)C[C@@H](O)/C=C(\C)CC(O)C12 (stereo partly specified)	> 100 µM
COc1cc(CN=c2nc(N(C)C)ss2)cc(OC)c1OC	> 10 µM
O=S1OC(c2ccccc2)(c2ccccc2)C(c2ccccc2)(c2ccccc2)O1	> 100 µM
CC(C)(C)CC(C)(C)c1ccc(OCCO)cc1	16.4 µg/mL
Cc1c(C(Cc2ccccc2N(C)C(=O)/C=C\C(=O)O)c2c[nH]c3ccccc23)c2ccccc2n1C (stereo unspecified)	32.7 µM
O=C(/C=C\c1ccc(O)c(O)c1)c1ccccc1O	49.8 µM
CS(=O)(=O)OCCN(CCOS(C)(=O)=O)c1ccc(C=Nc2ccc(-c3csc(COc4ccccc4)n3)cc2)cc1	2.1 µM
CC1=C(O)C(=O)C=C2C1=CC=C1[C@@]2(C)CC[C@@]2(C)C3C[C@@H](C)C(=O)[C@@H](O)[C@]3(C)CC[C@]12C (stereo partly specified)	37.6 µM
O=C1C(Cl)C(c2cccc([N+](=O)[O-])c2)N1n1cnc2ccccc2c1=O (stereo unspecified)	> 100 µM

Origin of the recorded values: PubChem BioAssay (NCI)
